- test_method_notes: 7-day repeat-dose oral toxicokinetics
- Type: in vivo, CD-1 mouse
- measurement_parameters: male, CD-1, mouse, plasma, po, 0.5 g/kg, 0.5 g/kg/dose BID, Day 7, M
measured_endpoint: Tmax (h)
One number for each entry, in h.

input: Which Tmax reading was recorded for the compound OC[C@@H](O)[C@@H](O)[C@@H](O)CO ?
output: 6.5

---

- test_method_notes: 7-day repeat-dose oral toxicokinetics
- Type: in vivo, Bama minipig
- measurement_parameters: female, Bama, minipig, plasma, po, 0.1 g/kg, 0.1 g/kg BID, Day 7, F
measured_endpoint: Cmax (µg/mL)
Numbers only, in µg/mL.

input: Which Cmax reading was recorded for the compound OC[C@@H](O)[C@@H](O)[C@@H](O)CO ?
output: 40.2
